Numbers sourced from patent US20220356255A1.

Experimental System: T1, biotinylated human PD-L1 (human, UniProt Q9NZQ7 19-239, limits assumed, biotinylated (sites not given))
T1 construct: Bought from R&D Systems; also called biotinylated-PD-L1; human PD-L1 biotin
T1 sequence (Q9NZQ7 19-239 limits assumed): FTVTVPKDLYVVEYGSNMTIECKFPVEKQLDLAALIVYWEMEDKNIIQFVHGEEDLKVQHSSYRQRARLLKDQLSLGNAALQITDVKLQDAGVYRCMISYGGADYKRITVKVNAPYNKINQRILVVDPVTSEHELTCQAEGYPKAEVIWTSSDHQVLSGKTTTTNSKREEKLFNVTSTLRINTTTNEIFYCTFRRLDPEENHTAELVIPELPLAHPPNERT
Test Summary: competition ELISA, Fab with biotinylated PD-L1 on coated PD-1-Fc, pH 6
Decide using IC50 alone. Strictly below 20 nM: MET. Equal to or above 20 nM: NOT MET.

Fab 8G08 (Fab, V domains shown, Purified Fab prepared from IgG with the Pierce kit; also called 8G08 Fab) VH: QVQLVQSGGGVVQPGRSLRLSCAASGFTFSSYGMYWVRQAPGKGLEWVAVISYDGSNKYYADSVKGRFTISRDNSKNTLNLQMNSLRAEDTAVYYCAKGALTHWGVVIGDGMDVWGQGTTVTVSS VL: NFMLTQPHSVSESPGKTVTISCISNDVPASGHYHRWYQQRPGSSPTTVIYEDDQRPSGVPDRFSGSIDSSSNSASLTISGLKTEDEADYYCQSFDSTNPWVFGGGTKLTVL; MET
Fab 8A04 (Fab, V domains shown, Purified Fab prepared from IgG with the Pierce kit; also called 8A04 Fab) VH: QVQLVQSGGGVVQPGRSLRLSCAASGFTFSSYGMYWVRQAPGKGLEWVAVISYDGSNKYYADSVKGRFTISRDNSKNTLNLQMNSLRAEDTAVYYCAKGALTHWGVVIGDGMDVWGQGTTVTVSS VL: NFMLTQPHSVSESPGKTVTISCMRTGTGNKGHYTRWYQQRPGSSPTTVIYEDDQRPSGVPDRFSGSIDSSSNSASLTISGLKTEDEADYYCQSFDSTNPWVFGGGTKLTVL; MET

**Q:** Problem: For the binder Fab 8D06 (Fab, V domains shown, Purified Fab prepared from IgG with the Pierce kit; also called 8D06 Fab) VH: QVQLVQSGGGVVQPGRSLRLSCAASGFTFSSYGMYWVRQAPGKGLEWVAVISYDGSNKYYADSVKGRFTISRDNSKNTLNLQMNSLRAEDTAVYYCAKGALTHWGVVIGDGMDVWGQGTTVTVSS VL: NFMLTQPHSVSESPGKTVTISCVLSPRTHAGHYYRWYQQRPGSSPTTVIYEDDQRPSGVPDRFSGSIDSSSNSASLTISGLKTEDEADYYCQSFDSTNPWVFGGGTKLTVL , is IC50 under 20 nM?
**A:** MET

**Q:** Problem: For the binder Fab 8D04 (Fab, V domains shown, Purified Fab prepared from IgG with the Pierce kit; also called 8D04 Fab) VH: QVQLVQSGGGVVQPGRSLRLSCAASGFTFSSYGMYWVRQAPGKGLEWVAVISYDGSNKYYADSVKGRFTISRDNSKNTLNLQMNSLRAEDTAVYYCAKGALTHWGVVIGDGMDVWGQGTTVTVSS VL: NFMLTQPHSVSESPGKTVTISCRGTGSSFHHKYVRWYQQRPGSSPTTVIYEDDQRPSGVPDRFSGSIDSSSNSASLTISGLKTEDEADYYCQSFDSTNPWVFGGGTKLTVL , is IC50 under 20 nM?
**A:** NOT MET

**Q:** Problem: For the binder Fab 8B06 (Fab, V domains shown, Purified Fab prepared from IgG with the Pierce kit; also called 8B06 Fab) VH: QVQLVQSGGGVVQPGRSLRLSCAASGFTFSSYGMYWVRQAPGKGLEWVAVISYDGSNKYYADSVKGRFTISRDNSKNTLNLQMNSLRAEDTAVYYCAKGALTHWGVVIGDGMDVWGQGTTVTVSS VL: NFMLTQPHSVSESPGKTVTISCRETELSRRLHYVRWYQQRPGSSPTTVIYEDDQRPSGVPDRFSGSIDSSSNSASLTISGLKTEDEADYYCQSFDSTNPWVFGGGTKLTVL , is IC50 under 20 nM?
**A:** MET
